TEST SYSTEM: T1, GST-Egl512-819 (Drosophila melanogaster, UniProt Q9W1K4 512-819)
T1 sequence: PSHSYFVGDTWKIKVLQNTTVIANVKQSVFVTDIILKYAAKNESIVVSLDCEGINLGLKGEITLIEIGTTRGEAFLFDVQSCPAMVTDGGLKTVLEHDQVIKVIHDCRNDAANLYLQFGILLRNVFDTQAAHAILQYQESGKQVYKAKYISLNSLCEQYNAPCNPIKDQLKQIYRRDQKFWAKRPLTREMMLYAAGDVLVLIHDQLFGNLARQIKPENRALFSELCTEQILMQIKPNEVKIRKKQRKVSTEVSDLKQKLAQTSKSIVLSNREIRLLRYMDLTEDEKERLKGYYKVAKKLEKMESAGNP
ASSAY DETAILS: fluorescence anisotropy; FA: 20 mM HEPES-NaOH pH 7.5, 100 mM NaCl, 10% glycerol, 20 C, 10 nM FAM-RNA; competition: 150 nM Egl512-819 + 10 nM FAM-K10 TLS, same buffer
EXPERIMENTAL PARAMETERS: protein: recombinant; tags: N-terminal GST (TEV site); label: 5'-FAM; hairpin
pKd: −log10 of the molar value.

# BINDER, pKd
records = [
    ("bcd_VbS (structured_RNA) RNA: AAAUGUUUCUCUUGGGCGUAAUCUCAUACAAUGAUUACCCUUAAAGAUCGAACAUUU", 6.80),
]

Attribution: paper doi:10.1101/2025.08.03.668247
